EXPERIMENT DESCRIPTION: Clearance in CD1 mouse at 1 mg/kg, iv administered as bolus dose or 1 mg/kg, po administered as single dose measured up to 24 hrs post dose by LC-MS/MS analysis
Type: ADME, organism-based
MEASUREMENT CONTEXT: in vivo
READOUT TYPE: clearance (mL/min/kg)

                                     smiles  readout_type  meas_value
0  COc1cc(N2CC[C@@H](Oc3ccc(N4N=C(C(F)(F)F)[C@@H](C)[C@@H]4CC(=O)O)cc3)[C@H](C)C2)c(Cl)cn1     clearance           2
1  CCOc1ccc(F)c(N2CC[C@@H](Oc3ccc(N4N=C(C(F)(F)F)[C@@H](C)[C@@H]4CC(=O)O)cc3)[C@H](F)C2)c1     clearance         1.6
2  COc1ccc(F)c(N2CCC(Oc3ccc(N4N=C(C(F)(F)F)[C@@H](C)[C@@H]4CC(=O)O)cc3)CC2)c1     clearance           6
